Kindly supply the reported Relative Inhibition of IL-13 induced pSTAT6 IC50 values for the records listed here.
Molecular target: T1, hIL-4Rα on cells (human, UniProt P24394 26-825)
T1 sequence: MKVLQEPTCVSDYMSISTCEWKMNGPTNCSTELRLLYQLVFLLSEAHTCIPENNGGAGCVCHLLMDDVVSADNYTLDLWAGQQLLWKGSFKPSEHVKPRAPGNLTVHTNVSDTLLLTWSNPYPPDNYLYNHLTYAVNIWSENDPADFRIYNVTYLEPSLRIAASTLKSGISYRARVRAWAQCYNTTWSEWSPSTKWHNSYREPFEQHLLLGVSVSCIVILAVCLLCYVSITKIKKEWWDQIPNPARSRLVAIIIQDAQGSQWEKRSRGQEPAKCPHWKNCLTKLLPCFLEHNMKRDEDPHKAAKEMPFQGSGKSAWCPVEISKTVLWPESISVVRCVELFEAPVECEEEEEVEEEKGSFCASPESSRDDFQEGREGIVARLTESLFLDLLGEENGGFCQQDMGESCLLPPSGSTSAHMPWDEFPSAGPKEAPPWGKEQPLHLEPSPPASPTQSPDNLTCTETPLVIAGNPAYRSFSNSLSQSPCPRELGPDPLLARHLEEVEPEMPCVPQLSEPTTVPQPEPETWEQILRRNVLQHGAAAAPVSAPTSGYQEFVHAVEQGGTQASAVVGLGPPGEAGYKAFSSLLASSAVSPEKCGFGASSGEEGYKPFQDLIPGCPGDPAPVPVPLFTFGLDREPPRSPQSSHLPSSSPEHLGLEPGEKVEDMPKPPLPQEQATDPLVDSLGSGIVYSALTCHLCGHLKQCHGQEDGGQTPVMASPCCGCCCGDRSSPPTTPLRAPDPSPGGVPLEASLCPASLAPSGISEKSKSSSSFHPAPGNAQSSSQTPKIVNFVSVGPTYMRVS
Assay: cell-based or functional assay

Please review the following examples before continuing.
Construct 38 (mAb471) (antibody, IgG4, V domains shown, VH/VL only) VH: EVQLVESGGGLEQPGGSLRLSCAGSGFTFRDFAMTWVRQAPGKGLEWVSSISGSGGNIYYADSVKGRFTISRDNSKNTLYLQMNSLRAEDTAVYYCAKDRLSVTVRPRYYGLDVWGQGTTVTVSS VL: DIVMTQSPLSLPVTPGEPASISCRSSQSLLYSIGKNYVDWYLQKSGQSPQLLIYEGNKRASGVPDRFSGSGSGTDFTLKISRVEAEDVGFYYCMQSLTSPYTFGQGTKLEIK | 1.56 relative to dupilumab
Construct 21 (mAb429) (antibody, IgG4, V domains shown, VH/VL only) VH: EVQLVESGGGLEQPGGSLRLSCAGSGFTFRTYAMTWVRQAPGKGLEWVSSISGSGGNIYYADSVKGRFTISRDNSKNTLYLQMNSLRAEDTAVYYCAKDRVSIYVRPRYYGLDVWGQGTTVTVSS VL: DIVMTQSPLSLPVTPGEPASISCTASQSLLYSIGYNYVDWYLQKSGQSPQLLIYLGSKRASGVPDRFSGSGSGTDFTLKISRVEAEDVGFYYCMQSLTSPYTFGQGTKLEIK | 0.447 relative to dupilumab
Construct 26 (mAb434) (antibody, IgG4, V domains shown, VH/VL only) VH: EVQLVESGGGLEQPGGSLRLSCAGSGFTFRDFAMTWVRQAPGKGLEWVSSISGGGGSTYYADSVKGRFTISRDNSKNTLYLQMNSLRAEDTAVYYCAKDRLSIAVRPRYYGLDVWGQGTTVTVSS VL: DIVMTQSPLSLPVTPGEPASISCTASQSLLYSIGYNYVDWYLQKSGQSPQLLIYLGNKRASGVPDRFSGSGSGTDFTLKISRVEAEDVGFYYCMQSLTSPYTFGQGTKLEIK | 0.627 relative to dupilumab
Construct 23 (mAb431) (antibody, V domains shown, VH/VL only) VH: EVQLVESGGGLEQPGGSLRLSCAGSGFTFRDFAMTWVRQAPGKGLEWVSSISGGGGSTYYADSVKGRFTISRDNSKNTLYLQMNSLRAEDTAVYYCAKDRLSVTVRPRYYGLDVWGQGTTVTVSS VL: DIVMTQSPLSLPVTPGEPASISCRSSQSVLYSIGKNYVDWYLQKSGQSPQLLIYLGSQRATGVPDRFSGSGSGTDFTLKISRVEAEDVGFYYCMQSLTSPYTFGQGTKLEIK | 0.475 relative to dupilumab

Continue with the next binder.
Which Relative Inhibition of IL-13 induced pSTAT6 IC50 value belongs to Construct 9 (mAb418) (antibody, IgG4, V domains shown, VH/VL only) VH: EVQLVESGGGLEQPGGSLRLSCAGSGFTFTDFAMTWVRQAPGKGLEWVSSISGSGGNIYYADSVKGRFTISRDNSKNTLYLQMNSLRAEDTAVYYCAKDRLSVTVRPRYYGLDVWGQGTTVTVSS VL: DIVMTQSPLSLPVTPGEPASISCRSSQSLLYSIGKNYVDWYLQKSGQSPQLLIYLGNNRATGVPDRFSGSGSGTDFTLKISRVEAEDVGFYYCMQALGSPYTFGQGTKLEIK ?
1.31 relative to dupilumab
